Data provenance: the supplement of paper PMC4466140

The following binders are listed with their measured SPOT peptide array binding signal intensity values.
Molecular target: AgHof1
Assay: SPOT peptide array binding signal intensity (averaged, normalized) (arbitrary units (background-subtracted, floor 0; scale differs between SH3 domains)); higher = stronger binding of the SH3 domain to the peptide

Below, 4 binders whose answers are already recorded.
RLSFFFPLDPAYIRN = 34
QDKEGIPPDQQRLIF = ≤ 0
TKFRISLGLPVGAIM = 91.5
GATNNAPTLPKRKNP = 32.9

Would you mind telling me what SPOT peptide array binding signal intensity value was observed for RKQRSIPLSPIVPES ?
35.5

Would you mind telling me what SPOT peptide array binding signal intensity value was observed for ATNVPVAPPPPPASL ?
3

Would you mind telling me what SPOT peptide array binding signal intensity value was observed for VPVAPPPPPASLGQS ?
≤ 0
